Literature roundup of D(2) dopamine receptor (Homo sapiens, UniProt P14416) data, read-out Ki.
A number alone suffices; assume µM.

Need Ki, item COc1ccc2oc(C(=O)NCCC(F)CN3CCN(c4ccccc4OC)CC3)cc2c1 (stereo not given)
0.274

Need Ki, item COc1ccccc1N1CCN(CCCc2cn(-c3ccccc3OC)nn2)CC1
0.272

Need Ki, item CCCN1CCO[C@@H]2c3cc4c(cc3OC[C@H]21)CCO4
12.6

Need Ki, item CC(C)(C)OC(=O)N[C@H]1CC[C@H](CCN2CCc3ccc([N+](=O)[O-])cc3C2)CC1
0.38

Need Ki, item O=C1CCc2ccccc2N1CCCN1CCN(c2ccc([N+](=O)[O-])cc2)CC1
24

Need Ki, item CC(C)S(=O)(=O)n1ccc2c(-c3ccc(C(F)(F)F)cc3)cc(N3CCN(C)CC3)nc21
0.025

Need Ki, item CC1(c2ccccc2)NC(=O)N(CC(O)CN2CCN(c3ccccc3C#N)CC2)C1=O.Cl (racemic)
1.69

Need Ki, item CN1CCc2cc(O)ccc2Cc2[nH]c3ccccc3c2CC1
0.0747

Need Ki, item CCCC(Oc1cc(Cl)cc(Cl)c1)c1nc(N)nc(N2CCN(C)CC2)n1 (racemic)
0.377

Need Ki, item CCCN1CCO[C@@H]2c3cc(C(C)=O)ccc3CC[C@H]21
3.09
